CONDITION_DESCRIPTION: in ethanol, 308.15 K
MEASUREMENT_KIND: solubility (mole fraction)

entry_smiles=N#Cc1cccc([N+](=O)[O-])c1 measurement_kind="solubility (mole fraction)" measurement=0.0106

---

CONDITION_DESCRIPTION: in isopropanol, 308.15 K
MEASUREMENT_KIND: solubility (mole fraction)

entry_smiles=N#Cc1cccc([N+](=O)[O-])c1 measurement_kind="solubility (mole fraction)" measurement=0.00711

---

CONDITION_DESCRIPTION: in cyclohexane, 283.15 K
MEASUREMENT_KIND: solubility (mole fraction)

entry_smiles=N#Cc1cccc([N+](=O)[O-])c1 measurement=0.000365

---

CONDITION_DESCRIPTION: in acetonitrile, 303.15 K
MEASUREMENT_KIND: solubility (mole fraction)

entry_smiles=N#Cc1cccc([N+](=O)[O-])c1 measurement_kind="solubility (mole fraction)" measurement=0.116

---

CONDITION_DESCRIPTION: in n-propanol, 293.15 K
MEASUREMENT_KIND: solubility (mole fraction)

entry_smiles=N#Cc1cccc([N+](=O)[O-])c1 measurement=0.00475

---

CONDITION_DESCRIPTION: in acetonitrile, 308.15 K
MEASUREMENT_KIND: solubility (mole fraction)

entry_smiles=N#Cc1cccc([N+](=O)[O-])c1 measurement=0.138

---

CONDITION_DESCRIPTION: in n-propanol, 278.15 K
MEASUREMENT_KIND: solubility (mole fraction)

entry_smiles=N#Cc1cccc([N+](=O)[O-])c1 measurement=0.0025

---

CONDITION_DESCRIPTION: in toluene, 303.15 K
MEASUREMENT_KIND: solubility (mole fraction)

entry_smiles=N#Cc1cccc([N+](=O)[O-])c1 measurement=0.067

---

CONDITION_DESCRIPTION: in isobutanol, 303.15 K
MEASUREMENT_KIND: solubility (mole fraction)

entry_smiles=N#Cc1cccc([N+](=O)[O-])c1 measurement=0.00504

---

CONDITION_DESCRIPTION: in toluene, 278.15 K
MEASUREMENT_KIND: solubility (mole fraction)

entry_smiles=N#Cc1cccc([N+](=O)[O-])c1 measurement=0.0259

---

CONDITION_DESCRIPTION: in cyclohexane, 288.15 K
MEASUREMENT_KIND: solubility (mole fraction)

entry_smiles=N#Cc1cccc([N+](=O)[O-])c1 measurement=0.000472

---

CONDITION_DESCRIPTION: in isobutanol, 278.15 K
MEASUREMENT_KIND: solubility (mole fraction)

entry_smiles=N#Cc1cccc([N+](=O)[O-])c1 measurement=0.00162

---

CONDITION_DESCRIPTION: in methanol, 313.15 K
MEASUREMENT_KIND: solubility (mole fraction)

entry_smiles=N#Cc1cccc([N+](=O)[O-])c1 measurement_kind="solubility (mole fraction)" measurement=0.0162

---

CONDITION_DESCRIPTION: in n-propanol, 308.15 K
MEASUREMENT_KIND: solubility (mole fraction)

entry_smiles=N#Cc1cccc([N+](=O)[O-])c1 measurement=0.00897

---

CONDITION_DESCRIPTION: in isobutanol, 318.15 K
MEASUREMENT_KIND: solubility (mole fraction)

entry_smiles=N#Cc1cccc([N+](=O)[O-])c1 measurement=0.00959
